- Tested on: Dermanyssus gallinae
- TEST_METHOD_NOTES: Miticidal action against Dermanyssus gallinae (contact test in glass vessel, mortality)
- Type: in vivo
- ASSAY_CONTEXT: geringere Wirkstoffkonzentrationen (below 100 ppm); observed three days; 4320 min
// reported Wirkung (Mortalität) for each item listed
Respond numerically; units are % and should not be typed.

As a guide, the following entries are already answered.
SMILES_NOTATION	Wirkung (Mortalität) (%)
C=COC(=O)O[C@H]1/C(C)=C/C[C@@H]2C[C@@H](C[C@]3(CC[C@H](C)[C@@H](C(C)C)O3)O2)OC(=O)[C@@H]2C=C(C)[C@@H](O)[C@H]3OC/C(=C\C=C\[C@@H]1C)[C@]32O	100
CC[C@H]1O[C@]2(CC[C@@H]1C)C[C@@H]1C[C@@H](C/C=C(\C)[C@H](OC(=O)OCCBr)[C@@H](C)/C=C/C=C3\CO[C@@H]4[C@H](O)C(C)=C[C@@H](C(=O)O1)[C@]34O)O2	100

Okay, now this compound:
Short answer for CC[C@H]1O[C@]2(CC[C@@H]1C)C[C@@H]1C[C@@H](C/C=C(\C)[C@H](OC(=O)OC(C)C)[C@@H](C)/C=C/C=C3\CO[C@@H]4[C@H](O)C(C)=C[C@@H](C(=O)O1)[C@]34O)O2 : Wirkung (Mortalität) was 100
